Data credit: paper PMC4301037

Entries annotated with measured GRK1 Tm
Biological target: GRK1 (Bos taurus, UniProt P28327)
Construct: Bovine GRK1_1–535, bovine and human GRK2S670A; made in house
Sequence (P28327 1-535): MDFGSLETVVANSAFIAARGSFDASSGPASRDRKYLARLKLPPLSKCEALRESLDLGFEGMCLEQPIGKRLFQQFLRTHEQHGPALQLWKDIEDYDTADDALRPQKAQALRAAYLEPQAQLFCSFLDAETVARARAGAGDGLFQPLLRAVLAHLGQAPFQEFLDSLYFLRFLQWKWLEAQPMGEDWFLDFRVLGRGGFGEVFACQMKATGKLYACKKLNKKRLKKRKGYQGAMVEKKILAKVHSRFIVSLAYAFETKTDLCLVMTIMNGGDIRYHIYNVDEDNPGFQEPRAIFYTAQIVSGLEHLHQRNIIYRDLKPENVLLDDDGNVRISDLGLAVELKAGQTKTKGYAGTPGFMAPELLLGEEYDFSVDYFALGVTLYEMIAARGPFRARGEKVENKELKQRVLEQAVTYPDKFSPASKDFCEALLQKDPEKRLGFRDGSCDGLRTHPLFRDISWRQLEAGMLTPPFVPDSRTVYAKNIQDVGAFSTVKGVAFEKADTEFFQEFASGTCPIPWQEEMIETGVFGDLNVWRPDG
Assay: DSF retest (confirmation), GRK1
Format: binding, bovine
Conditions: 0.2 mg mL^–1 kinase
Could you give me the number in °C? Just the number is fine.

Check out these entries, answers already filled in.
> print(dat)
                                   molecule  experimental.value
1  CC1=C(C(=O)Nc2ccc3[nH]ncc3c2)C(c2ccc3ccccc3c2)CC(=O)N1 (stereo not shown) [GSK270822A]                24.6
2  CC1=C(C(=O)Nc2cc(Cl)c3[nH]ncc3c2)C(c2ccc(C(F)(F)F)cc2)CC(=O)N1 (stereo not shown) [GSK466317A]                24.6
3  COc1cc2c(cc1Nc1nc(Nc3ccsc3C(N)=O)c3cc[nH]c3n1)N(C(=O)CN(C)C)CCC2 [GSK2110236A]                18.5

Would you kindly look at the next entry?
Prompt: Request: GRK1 Tm, test system GRK1 (Bos taurus, UniProt P28327), entry CN(c1ccc(NC(=O)Nc2ccc(OC(F)(F)F)cc2)cc1)c1ccnc(Nc2cccc(S(N)(=O)=O)c2)n1 [GW806742X]
Response: 20.3

----------
Target: protein kinase A (PKA) (Mus musculus, UniProt P05132)
Construct: His tag (inferred from pET15b vector and Ni-NTA column) (N); host or cells: E. coli Rosetta(DE3)pLysS
Test: DSF retest (confirmation), PKA
Format: binding
Details: 0.2 mg mL^–1 kinase
Threshold-based label: PKA Tm under 50 °C gives true, PKA Tm not under 50 °C gives false.

Take a look at these entries with their results.
> print(dat)
                                   molecule                             tested.system   cat
1  CN(c1ccc(NC(=O)Nc2ccc(OC(F)(F)F)cc2)cc1)c1ccnc(Nc2cccc(S(N)(=O)=O)c2)n1 [GW806742X]  protein kinase A (PKA) (Mus musculus, UniProt P05132)  true
2  CC(C)COC(=O)c1ccc2c(c1)/C(=C/Nc1ccc(S(N)(=O)=O)cc1)C(=O)N2 [GW416981X]  protein kinase A (PKA) (Mus musculus, UniProt P05132)  true

Continue with the next molecule.
Prompt: Please determine if CCn1c(-c2nonc2N)nc2c(C#CC(C)(C)O)nc(O[C@@H](CN)c3ccccc3)cc21 [GSK1007102B] is below 50 °C in terms of PKA Tm.
Response: false

----------
Molecular target: bovine GRK5 (Bos taurus)
Construct: when using full-length kinases as the receptor[37] instead of isolated kinase domains; made in house
Sequence (P43249 whole entry, the tested form may be a part): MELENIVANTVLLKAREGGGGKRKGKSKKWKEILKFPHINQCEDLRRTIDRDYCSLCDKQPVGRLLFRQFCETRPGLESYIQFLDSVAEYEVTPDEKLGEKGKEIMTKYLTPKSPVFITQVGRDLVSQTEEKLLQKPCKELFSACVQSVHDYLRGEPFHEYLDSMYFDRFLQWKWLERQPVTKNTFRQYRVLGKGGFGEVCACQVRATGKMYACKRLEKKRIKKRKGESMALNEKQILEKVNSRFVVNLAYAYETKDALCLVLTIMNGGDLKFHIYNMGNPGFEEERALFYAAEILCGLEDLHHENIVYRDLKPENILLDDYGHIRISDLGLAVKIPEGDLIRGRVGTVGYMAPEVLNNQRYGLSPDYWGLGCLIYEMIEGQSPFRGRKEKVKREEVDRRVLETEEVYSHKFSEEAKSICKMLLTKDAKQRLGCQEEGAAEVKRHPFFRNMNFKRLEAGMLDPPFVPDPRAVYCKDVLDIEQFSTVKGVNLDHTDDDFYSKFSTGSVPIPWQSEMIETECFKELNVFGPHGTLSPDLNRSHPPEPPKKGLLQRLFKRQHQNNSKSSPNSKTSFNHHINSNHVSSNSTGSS
Experiment: Primary DSF inhibitor screen, GRK5
Format: binding
Details: 10 μM compound, 2 μM kinase, relative to DMSO control; read-out: ΔTm, primary screen, GRK5
Entries annotated with measured ΔTm at 10 µM
Could you give me the number in °C? Just the number is fine.

> print(dat)
                                   compound             tested.system  experimental.value
1  CS(=O)(=O)CCNCc1ccc(-c2ccc3ncnc(Nc4ccc(OCc5ccccc5)c(Br)c4)c3c2)o1 [GW580496A]  bovine GRK5 (Bos taurus)                4.33

Prompt: Dear colleague, I am looking for the recorded ΔTm at 10 µM of the following compound: Nc1ncnc2occ(-c3ccc(NC(=O)Nc4cccc(C(F)(F)F)c4)cc3)c12 [GW795493X]
Response: 4.96

Prompt: // repeat for CCc1nn2ncccc2c1-c1ccnc(NC2CC2)n1 [GW683768X] and report
Response: 2.22

Prompt: // repeat for O=C(Nc1ccc(Oc2ccc3nc(NC(=O)c4ccco4)[nH]c3c2)cc1)Nc1cc(C(F)(F)F)ccc1F [GW683134A] and report
Response: 2.32

Prompt: // repeat for `CC(C)[C@H](CO)Nc1nc(Nc2cccc(Cl)c2)c2ncn(C(C)C)c2n1` and report
Response: 6.44

Prompt: // repeat for COC(=O)Nc1nc2ccc(Oc3ccc(NC(=O)Nc4cccc(C(=O)O)c4)cc3)cc2[nH]1 [GW701427A] and report
Response: 3.25

Prompt: // repeat for COC(=O)Nc1nc2ccc(Oc3cccc(NC(=O)Nc4cc(C(F)(F)F)ccc4F)c3)cc2[nH]1 [GW659386A] and report
Response: 2.51

Prompt: // repeat for COc1cc(C)c(N(C)C(=O)CN(C)C)cc1Nc1nc(Nc2cccc(F)c2C(N)=O)c2cc[nH]c2n1 [GSK2219385A] and report
Response: 3.58
